- experimental.system: T1, human IL-18BP (interleukin-18 binding protein, isoform A) (human, UniProt O95998 31-194)
- T1 construct: cell assays used Sino Biological 10357-H08H; PBMC assay 1 relies on endogenous IL-18BP; UniProt number is printed as 095998; also called hIL-18BP
- T1 sequence: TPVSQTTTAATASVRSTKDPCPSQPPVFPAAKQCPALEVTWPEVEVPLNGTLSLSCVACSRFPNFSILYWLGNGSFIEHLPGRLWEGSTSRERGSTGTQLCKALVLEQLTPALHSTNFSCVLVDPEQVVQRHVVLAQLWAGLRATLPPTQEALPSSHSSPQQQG
- test: BLI, affinity column of Table E8
reported.endpoint: pKd
Reminder that pKd is minus the log10 of a molar concentration.

Tell me the measured pKd of SA315a (antibody, human IgG1, V domains shown, humanized; human IgG1 (suffix a), kappa) VH: QVQLQESGPGLVKPSQTLSLTCTVSGYSITSDYNAHWIRQPPGKGLEWIGYIHYSGQTMYNPSLKSRVTISRDTSKNQFSLKLSSVTAADTAVYYCARNFGSIYVNYFDYWGQGTLVTVSS VL: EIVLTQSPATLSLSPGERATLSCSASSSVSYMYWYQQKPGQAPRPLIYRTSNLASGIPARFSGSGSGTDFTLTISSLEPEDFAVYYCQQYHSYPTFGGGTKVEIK , please.
10.41

Tell me the measured pKd of SA320a (antibody, human IgG1, V domains shown, humanized; human IgG1 (suffix a), kappa) VH: QVQLQESGPGLVKPSQTLSLTCTVSGYSITQDYNAHWIRQPPGKGLEWIGYIHYSGQTYYNPSLKSRVTISRDTSKNQFSLKLSSVTAADTAVYYCARNFGSIYVNYFDYWGQGTLVTVSS VL: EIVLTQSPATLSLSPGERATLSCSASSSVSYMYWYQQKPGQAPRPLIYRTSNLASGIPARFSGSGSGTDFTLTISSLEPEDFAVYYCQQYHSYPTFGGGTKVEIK , please.
10.28

Tell me the measured pKd of SA337a (antibody, human IgG1, V domains shown, humanized; human IgG1 (suffix a), kappa) VH: QVQLQESGPGLVKPSQTLSLTCTVSGYSITQDYNAHWIRQPPGKGLEWIGYIHYSGQTNYNPSLKSRVTISRDTSKNQFSLKLSSVTAADTAVYYCARNYGSIYVNYFDYWGQGTLVTVSS VL: EIVLTQSPATLSLSPGERATLSCSASSSVSYMYWYQQKPGQAPRPLIYRTSNLASGIPARFSGSGSGTDFTLTISSLEPEDFAVYYCQLYHSYPTFGGGTKVEIK , please.
10.33
